- Target Entity: UniProt:P48736
- Sequence (P48736 whole entry, canonical isoform): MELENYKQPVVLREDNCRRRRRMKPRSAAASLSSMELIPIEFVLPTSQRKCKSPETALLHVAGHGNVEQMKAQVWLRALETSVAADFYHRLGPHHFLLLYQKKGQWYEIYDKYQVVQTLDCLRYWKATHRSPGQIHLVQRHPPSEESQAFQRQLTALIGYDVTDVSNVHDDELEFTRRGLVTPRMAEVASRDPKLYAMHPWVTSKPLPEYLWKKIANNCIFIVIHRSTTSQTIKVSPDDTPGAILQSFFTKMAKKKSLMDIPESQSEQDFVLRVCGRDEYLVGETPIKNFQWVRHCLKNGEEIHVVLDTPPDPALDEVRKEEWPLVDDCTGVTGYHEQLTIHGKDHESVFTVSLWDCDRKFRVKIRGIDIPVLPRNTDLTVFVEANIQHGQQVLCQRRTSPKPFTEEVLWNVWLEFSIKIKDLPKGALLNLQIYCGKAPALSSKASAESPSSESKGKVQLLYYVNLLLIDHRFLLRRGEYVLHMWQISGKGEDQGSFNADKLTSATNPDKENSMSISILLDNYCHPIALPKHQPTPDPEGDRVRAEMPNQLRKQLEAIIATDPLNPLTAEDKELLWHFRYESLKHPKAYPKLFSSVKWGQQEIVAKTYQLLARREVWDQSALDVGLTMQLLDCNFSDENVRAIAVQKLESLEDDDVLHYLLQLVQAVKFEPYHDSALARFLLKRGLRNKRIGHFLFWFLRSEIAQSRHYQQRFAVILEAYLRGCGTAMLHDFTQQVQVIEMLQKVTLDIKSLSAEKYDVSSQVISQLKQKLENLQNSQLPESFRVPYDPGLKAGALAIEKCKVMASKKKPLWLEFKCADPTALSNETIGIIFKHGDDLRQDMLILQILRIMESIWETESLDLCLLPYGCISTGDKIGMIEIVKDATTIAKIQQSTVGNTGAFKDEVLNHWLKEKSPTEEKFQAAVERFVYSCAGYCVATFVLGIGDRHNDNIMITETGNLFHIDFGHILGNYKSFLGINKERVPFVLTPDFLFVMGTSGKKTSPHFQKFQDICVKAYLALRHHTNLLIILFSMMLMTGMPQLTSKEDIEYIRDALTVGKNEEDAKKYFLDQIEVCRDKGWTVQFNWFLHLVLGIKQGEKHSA
- Sequence (Q8WYR1 whole entry partner, canonical isoform): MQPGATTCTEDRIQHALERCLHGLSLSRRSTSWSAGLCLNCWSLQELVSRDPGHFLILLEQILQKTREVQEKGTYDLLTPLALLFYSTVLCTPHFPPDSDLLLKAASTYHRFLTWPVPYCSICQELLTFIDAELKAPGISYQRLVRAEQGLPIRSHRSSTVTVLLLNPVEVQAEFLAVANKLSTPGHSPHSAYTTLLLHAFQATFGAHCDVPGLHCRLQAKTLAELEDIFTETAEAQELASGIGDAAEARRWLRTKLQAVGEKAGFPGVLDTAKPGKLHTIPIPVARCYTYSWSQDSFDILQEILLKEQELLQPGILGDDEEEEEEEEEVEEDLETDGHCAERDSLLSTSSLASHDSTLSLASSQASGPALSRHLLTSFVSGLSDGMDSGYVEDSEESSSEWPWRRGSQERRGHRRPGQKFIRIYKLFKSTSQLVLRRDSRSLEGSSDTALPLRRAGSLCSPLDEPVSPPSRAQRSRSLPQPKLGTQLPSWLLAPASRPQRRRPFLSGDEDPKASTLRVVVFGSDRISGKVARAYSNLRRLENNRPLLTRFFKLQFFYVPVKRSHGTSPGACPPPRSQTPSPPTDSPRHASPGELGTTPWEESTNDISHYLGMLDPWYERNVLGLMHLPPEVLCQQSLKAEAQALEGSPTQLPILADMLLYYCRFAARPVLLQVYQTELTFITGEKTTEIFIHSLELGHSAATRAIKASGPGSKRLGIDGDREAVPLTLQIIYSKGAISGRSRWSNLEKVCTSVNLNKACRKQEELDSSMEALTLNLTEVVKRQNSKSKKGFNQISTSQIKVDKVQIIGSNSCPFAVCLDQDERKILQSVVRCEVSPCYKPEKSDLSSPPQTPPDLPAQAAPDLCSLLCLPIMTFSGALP
- Assay Comment: TR-FRET enzymatic assay of PI3K isoforms (PI3Kγ)
- Type: biochemical
- Assay Setup: TR-FRET, 2×Km ATP, 2 μM PIP2, PI3Kγ at 2 nM, incubated for 30 minutes at 25° C.; read-out: γ IC50
Measurement Label: IC50 (µM)

Before answering, review these 2 worked examples.
[[record]]
cpd_smiles = "C[C@H](Nc1ncnc(N)c1C#N)c1nc2cccc(Cl)c2c(=O)n1-c1cccc(NC(=O)NCCCO)c1"
test_value = 5.6

[[record]]
cpd_smiles = "C[C@H](Nc1nc(N)nc(N)c1C#N)c1nc2c(Cl)ccc(Cl)c2c(=O)n1-c1cccc(C(N)=O)c1"
test_value = 0.46


(A) CCC[C@H](Nc1nc(N)nc(N)c1Cl)c1nc2cccc(Cl)c2c(=O)n1-c1cccc(C(N)=O)c1
(B) C[C@H](Oc1ncnc2scnc12)c1nc2cccc(Cl)c2c(=O)n1-c1cccc(NC(=O)NCC(F)(F)C(F)(F)F)c1
Form: Entry with minimum IC50 (choose one): A / B Please identify the chosen entry by its label.
B
(B: 2.5 µM, A: 3.9 µM)

* * *

- Target Entity: PI3Kδ (Homo sapiens (Human))
- Assay Comment: TR-FRET enzymatic assay of PI3K isoforms (PI3Kδ)
- Assay Setup: 2×Km ATP, 2 μM PIP2, incubated for 30 minutes at 25° C., read-out: δ IC50
Measurement Label: IC50 (nM)

[[record]]
compound = "C[C@H](Nc1ncnc(N)c1C#N)c1nc2c(Cl)ccc(Cl)c2c(=O)n1-c1cccc(NC(=O)NCCCO)c1"
target_entity = "PI3Kδ (Homo sapiens (Human))"
test_value = 8

[[record]]
compound = "C[C@H](Nc1nc(N)nc(C(F)F)c1C#N)c1nc2cccc(Cl)c2c(=O)n1-c1cccc(C(N)=O)c1"
target_entity = "PI3Kδ (Homo sapiens (Human))"
test_value = 1

[[record]]
compound = "C[C@H](Nc1ncnc(N)c1C#N)c1nc2cccc(Cl)c2c(=O)n1-c1cccc(NC(=O)NCCF)c1"
target_entity = "PI3Kδ (Homo sapiens (Human))"
test_value = 5

[[record]]
compound = "C[C@H](Nc1ncnc2[nH]cnc12)c1nc2cccc(Cl)c2c(=O)n1-c1cccc(NC(=O)Nc2ccccc2S(C)(=O)=O)c1"
target_entity = "PI3Kδ (Homo sapiens (Human))"
test_value = 8

[[record]]
compound = "C[C@H](Nc1ncnc(N)c1C#N)c1nc2cccc(Cl)c2c(=O)n1-c1cccc(NC(=O)Nc2ccccc2Cl)c1"
target_entity = "PI3Kδ (Homo sapiens (Human))"
test_value = 3


(I) CCNC(=O)Nc1cccc(-n2c([C@H](C)Nc3ncnc(N)c3C#N)nc3cccc(Cl)c3c2=O)c1Cl (single isomer, unassigned) [Compound 94]
(II) CCNC(=O)Nc1cccc(-n2c([C@H](C)Nc3ncnc(N)c3C#Cc3ccccn3)nc3cccc(Cl)c3c2=O)c1
Would you kindly point out which of I and II has the smaller IC50 figure? Response format: the label of the selected entry.
II
(II: 1 nM, I: 78 nM)

(1) CCNC(=O)Nc1cccc(-n2c([C@H](C)Nc3ncnc(N)c3C#N)nc3c(F)cccc3c2=O)c1
(2) C[C@H](Nc1nc(N)nc(C(F)F)c1C#N)c1nc2c(Cl)cc(F)cc2c(=O)n1-c1cccc(C(N)=O)c1
(3) CCNC(=O)Nc1ccc(C)c(-n2c([C@H](C)Nc3ncnc(N)c3C#N)nc3cccc(Cl)c3c2=O)c1 (atropisomer, axis not shown) [Compound 60]
Put the items in order so that reported IC50 rises from first to last. Reply with the labels, ordered as the question asks.
3, 2, 1

(A) CCNC(=O)Nc1cccc(-n2c([C@H](C)Nc3ncnc(N)c3C#N)nc3cccc(C)c3c2=O)c1
(B) CCNC(=O)Nc1cccc(-n2c([C@H](C)Nc3ncnc(N)c3C#N)nc3cc(F)ccc3c2=O)c1
(C) C[C@H](Nc1ncnc(N)c1C#N)c1nc2cccc(Cl)c2c(=O)n1-c1cccc(NC(=O)NCC(C)(C)CO)c1
// ascending sort on recorded IC50 Returns: the labels arranged in the requested order.
A, C, B

* * *

- Target Entity: PI3Kδ (Homo sapiens (Human), UniProt O00329)
- Sequence (O00329 whole entry, canonical isoform): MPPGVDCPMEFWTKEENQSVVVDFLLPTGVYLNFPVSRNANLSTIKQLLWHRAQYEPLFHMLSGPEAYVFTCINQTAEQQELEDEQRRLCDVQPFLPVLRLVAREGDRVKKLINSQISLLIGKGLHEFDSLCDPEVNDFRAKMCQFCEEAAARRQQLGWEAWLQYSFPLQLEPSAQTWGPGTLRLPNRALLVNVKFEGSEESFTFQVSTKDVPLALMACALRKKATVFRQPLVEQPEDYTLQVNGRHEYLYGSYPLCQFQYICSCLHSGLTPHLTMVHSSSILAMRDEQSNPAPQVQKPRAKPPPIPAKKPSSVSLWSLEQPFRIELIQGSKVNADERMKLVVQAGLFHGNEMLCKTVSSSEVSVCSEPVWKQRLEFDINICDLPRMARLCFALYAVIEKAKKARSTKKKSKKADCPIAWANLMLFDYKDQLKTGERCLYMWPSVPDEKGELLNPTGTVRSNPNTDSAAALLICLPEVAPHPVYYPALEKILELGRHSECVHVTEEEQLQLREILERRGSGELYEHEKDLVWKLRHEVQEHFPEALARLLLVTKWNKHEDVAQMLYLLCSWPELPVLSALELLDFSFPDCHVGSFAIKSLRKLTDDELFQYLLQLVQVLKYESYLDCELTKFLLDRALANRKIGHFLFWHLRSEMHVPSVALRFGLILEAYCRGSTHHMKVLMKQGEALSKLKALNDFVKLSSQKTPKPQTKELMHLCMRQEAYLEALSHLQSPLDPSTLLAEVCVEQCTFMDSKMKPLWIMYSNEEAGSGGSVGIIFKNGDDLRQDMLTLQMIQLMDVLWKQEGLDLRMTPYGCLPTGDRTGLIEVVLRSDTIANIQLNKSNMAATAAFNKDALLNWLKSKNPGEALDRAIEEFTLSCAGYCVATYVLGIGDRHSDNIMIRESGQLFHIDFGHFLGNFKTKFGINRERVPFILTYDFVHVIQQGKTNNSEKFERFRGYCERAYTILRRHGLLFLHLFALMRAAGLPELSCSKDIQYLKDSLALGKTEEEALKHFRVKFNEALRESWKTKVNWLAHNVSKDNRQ
- Sequence (P27986 whole entry partner, canonical isoform): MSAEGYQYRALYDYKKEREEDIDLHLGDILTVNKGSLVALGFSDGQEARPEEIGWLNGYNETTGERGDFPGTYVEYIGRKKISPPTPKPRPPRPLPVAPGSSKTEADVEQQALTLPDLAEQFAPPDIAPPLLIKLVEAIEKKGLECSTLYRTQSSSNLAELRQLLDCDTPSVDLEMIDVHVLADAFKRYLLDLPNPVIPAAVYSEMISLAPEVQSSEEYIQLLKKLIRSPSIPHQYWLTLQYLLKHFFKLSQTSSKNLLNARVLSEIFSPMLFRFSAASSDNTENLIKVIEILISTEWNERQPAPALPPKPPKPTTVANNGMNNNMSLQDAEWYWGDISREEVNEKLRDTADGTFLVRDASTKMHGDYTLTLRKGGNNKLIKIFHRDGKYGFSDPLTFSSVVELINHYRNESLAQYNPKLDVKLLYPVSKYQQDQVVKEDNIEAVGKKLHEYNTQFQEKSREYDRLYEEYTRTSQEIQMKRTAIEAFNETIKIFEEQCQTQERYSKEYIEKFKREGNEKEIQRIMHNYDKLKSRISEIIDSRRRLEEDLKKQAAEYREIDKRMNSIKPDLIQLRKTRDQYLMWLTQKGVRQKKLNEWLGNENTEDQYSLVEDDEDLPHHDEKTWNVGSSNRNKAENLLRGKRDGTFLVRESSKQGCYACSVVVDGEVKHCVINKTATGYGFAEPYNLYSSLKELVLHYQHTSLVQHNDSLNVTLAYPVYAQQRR
- Assay Comment: TR-FRET enzymatic assay of PI3K isoforms (PI3Kδ)
- Assay Setup: 2×Km ATP, 2 μM PIP2, incubated for 30 minutes at 25° C., read-out: δ IC50
Measurement Label: IC50 (nM)

Guide cases for IC50, answers given:
[[record]]
molecule = "CC[C@H](Nc1nc(N)nc(N)c1C#N)c1nc2cccc(C(F)F)c2c(=O)n1-c1cccc(C(N)=O)c1"
measurement_label = "IC50"
test_value = 0.8

[[record]]
molecule = "N#Cc1c(N)nc(N)nc1N[C@H](c1nc2cccc(C(F)F)c2c(=O)n1-c1cccc(C(N)=O)c1)C1CC1"
measurement_label = "IC50"
test_value = 1

[[record]]
molecule = "C[C@H](Nc1ncnc(N)c1C#N)c1nc2c(F)ccc(F)c2c(=O)n1-c1cccc(NC(=O)NCCCO)c1"
measurement_label = "IC50"
test_value = 98

[[record]]
molecule = "C[C@H](Nc1ncnc(N)c1C#N)c1nc2cccc(Cl)c2c(=O)n1-c1cccc(NC(=O)NC2CCCCC2)c1"
measurement_label = "IC50"
test_value = 4

[[record]]
molecule = "CCNC(=O)Nc1ccc(C)c(-n2c([C@H](C)Nc3ncnc(N)c3C#N)nc3cccc(Cl)c3c2=O)c1 (atropisomer, axis not shown) [Compound 61]"
measurement_label = "IC50"
test_value = 8


(P) CCNC(=O)Nc1cccc(-n2c([C@H](C)Nc3ncnc4[nH]cnc34)nc3cccc(Cl)c3c2=O)c1
(Q) CCNC(=O)Nc1cccc(-n2c([C@H](C)Nc3ncnc(N)c3C#N)nc3ccccc3c2=O)c1
Hi there, can you help? I need to know whether P or Q has lower measured IC50. Give the chosen item's label as your response.
P

* * *

- Target Entity: UniProt O00329
- Assay Comment: TR-FRET enzymatic assay of PI3K isoforms (PI3Kδ)
- Assay Setup: 2×Km ATP, 2 μM PIP2, incubated for 30 minutes at 25° C., read-out: δ IC50
pIC50: −log10 of the molar value.
Measurement Label: pIC50

A selection of reference data follows.
[[record]]
compound = "CONC(=O)Nc1cccc(-n2c([C@H](C)Nc3ncnc(N)c3C#N)nc3cccc(Cl)c3c2=O)c1 [Compound 115]"
target_entity = "UniProt O00329"
test_value = 8.30

[[record]]
compound = "C[C@H](Nc1ncnc(N)c1C#N)c1nc2cccc(Cl)c2c(=O)n1-c1cccc(NC(=O)Nc2ccccc2S(=O)(=O)O)c1 [Compound 97]"
target_entity = "UniProt O00329"
test_value = 8.30

[[record]]
compound = "C[C@H](Nc1ncnc(N)c1C#N)c1nc2cccc(Cl)c2c(=O)n1-c1cccc(NC(=O)NC2CCC2)c1 [Compound 123]"
target_entity = "UniProt O00329"
test_value = 8.52

[[record]]
compound = "C[C@H](Nc1ncnc(N)c1C#N)c1nc2cccc(Cl)c2c(=O)n1-c1cccc(NC(=O)NC2CC2)c1 [Compound 125]"
target_entity = "UniProt O00329"
test_value = 8.15


(a) CC(O)CNC(=O)Nc1cccc(-n2c([C@H](C)Nc3ncnc(N)c3C#N)nc3cccc(Cl)c3c2=O)c1 (some centres unmarked) [Compound 129]
(b) C=CCc1cccc2nc([C@H](C)Nc3ncnc(N)c3C#N)n(-c3cccc(NC(=O)NCC)c3)c(=O)c12 [Compound 46]
Could you point out whether the larger pIC50 belongs to a or to b ? Use the label to indicate which entry you chose.
a
(a: 8.40, b: 7.77)

(P) CC(C)NC(=O)Nc1cccc(-n2c([C@H](C)Nc3ncnc(N)c3C#N)nc3cccc(Cl)c3c2=O)c1 [Compound 120]
(Q) CCC[C@H](Nc1nc(N)nc(N)c1C#N)c1nc2cccc(Cl)c2c(=O)n1-c1cccc(C(N)=O)c1 [Compound 22]
(R) CCC[C@H](Nc1nc(N)nc(N)c1Cl)c1nc2cccc(Cl)c2c(=O)n1-c1cccc(C(N)=O)c1 [Compound 23]
(S) CCNC(=O)Nc1ccc(Cl)c(-n2c([C@H](C)Nc3ncnc(N)c3C#N)nc3cccc(Cl)c3c2=O)c1 (atropisomer, axis not shown) [Compound 59]
Please order the records by their reported pIC50, lowest number first. Order the labels as requested and list them.
S, P, R, Q

(a) CC(Oc1ncnc2scnc12)c1nc2cccc(Cl)c2c(=O)n1-c1cccc(NC(=O)NCC(F)(F)F)c1 (centres unmarked) [Compound 154]
(b) CCNC(=O)Nc1cccc(-n2c([C@@H]3CCCN3c3ncnc(N)c3C#N)nc3cccc(Cl)c3c2=O)c1 [Compound 83]
(c) C[C@H](Nc1ncnc(N)c1C#N)c1nc2cccc(F)c2c(=O)n1-c1cccc(NC(=O)Nc2ccccc2C(F)(F)F)c1 [Compound 110]
(d) C[C@H](Nc1ncnc(N)c1C#N)c1nc2cccc(Cl)c2c(=O)n1-c1cccc(NC(=O)NS(=O)(=O)C2CC2)c1 [Compound 81]
# ascending order, key=pIC50 Answer format: the labels, in the requested order.
c, b, a, d
